- ASSAY_METHOD_TEXT: Mouse PK (in vivo T1/2 and oral bioavailability)
- MEASUREMENT_PARAMETERS: fasted male CD-1 mice, single PO 5 mg/kg, formulating agent HP-β-CD
- Method: 3) Mouse PK (In Vivo T1/2 and Oral Bioavailability) In vivo pharmacokinetics (PK) were assessed in fasted male CD-1 mice (age 6-8 weeks) following a single intravenous (IV, 0.5 or 1.0 mg/kg administered at 2.5 ml/kg) or oral (PO, 5 mg/kg administered at 10 ml solution/kg) dose of test article formulated in a 20% (w:vol) HP-β-CD solution or in Pyrogen free water. […]
QUANTITY_KIND: bioavailability (%)

{"MOLECULE": "CCN(C(=O)c1cc(F)ccc1Oc1nncnc1N1CCC2(C1)CN([C@H](CCCN[C@H](C)COC)C(C)C)C2)C(C)C.O=C(O)/C=C/C(=O)O", "bioavailability / %": 4}

1: CC(C)[C@@H](CCCN(C)C)N1CC2(CCN(c3ncnnc3Oc3ccc(F)cc3C(=O)N(C(C)C)C(C)C)C2)C1 (single isomer, unassigned)
2: CCN(C)C[C@H](O)C[C@H](C(C)C)N1CC2(CCN(c3ncnnc3Oc3ccc(F)cc3C(=O)N(CC)C(C)C)C2)C1.O=C(O)/C=C/C(=O)O (single isomer, unassigned)
In: Quick check, higher bioavailability between 1 and 2 ? Please respond with the label that marks your chosen entry.
Out: 1
